measured-target: Gal(b1-4)Gal
assay-notes: glycan array binding signal (z-score within array); higher = stronger binding
measurement-context: glycan notation: IUPAC condensed, linker removed
Shown is part of a subset that was picked to be rich in the strongest signals.
Property: glycan array binding signal (z-score); scope: individual binders
The reply should be a number, written without any unit.

Consider the worked cases shown below.
| binder | observed-measurement |
| --- | --- |
| PLU (Photorhabdus luminiscence) (protein) HHHHHHENLYFQSSIVFASIDPRSNPLQTSSQNYVDIPGLKLDVSKYSNSPCLTALITLNIPTPYASGNNFPGGNFAIVTDQGEQLAYGGFTYSSKIPENSGRMPFTLVARYSLASNVSTIKAQWSNIRGSTVHIDSYASISAVIQCNQLV | -0.25 |
| SSR2 (Sclerotium rolfsii) (protein) MVYKITVRVYQTNPDAFFHPVEKTVWKYANGGTWSITDDQHVLTMGGSGTSGTLRFHADNGESFTATFGVHNYKRWCDIVTNLAADETGMVINQQYYSQKNREEARERQLSNYQVKNAKGRNFQIVYTEAEGNDLHANLIIG | -0.288 |
| SJCP3842 (Schistosoma japonicum) (protein) MFKMRIINLVNISTVLLLINLLQTKSRLVGKENGFMLTVSIYGAQLSDKMTSVPVSWTIDYEDPEKSAFKKLVTDSCDTFSEYVKSQIPKGSVDGQCTSHIFQRPGSGSGVSISLTLSFIYVDVTQPDTVALKTELEKHFANFVTIHSHKITQAQFRINQKAIVIPTGDKDAIDGSKWKIIAIIALVALAIVVIGGFIYICVK | -0.475 |

Shifting focus to the binder that follows.
Exercise: Sample Als3-2 (Candida albicans) (protein) KTITGVFNSFNSLTWSNAATYNYKGPGTPTWNAVLGWSLDGTSASPGDTFTLNMPCVFKFTTSQTSVDLTAHGVKYATCQFQAGEEFMTFSTLTCTVSNTLTPSIKALGTVTLPLAFNVGGTGSSVDLEDSKCFTAGTNTVTFNDGGKKISINVDFERSNVDPKGYLTD — what was its glycan array binding signal (z-score)?
Key: -0.552
